What TGI was measured for each of the following?
- Test system: BT-549 breast
- assay procedure: NCI tumour cell line growth inhibition, 48 h
Give bare numbers, in µM.

| compound | TGI, µM |
| --- | --- |
| CC(C)(CN1CCCCC1)C(/C=C/c1ccccc1)=N\NC(=O)N/N=C(/C=C/c1ccccc1)C(C)(C)CN1CCCCC1 | 3.23 |
| C[C@]12CC[C@H]3[C@@H](CC[C@]4(O)C[C@@H](O)CC[C@]34CO)[C@@]1(O)CC[C@@H]2C1=CC(=O)OC1 | 3.68 |

Please report TGI for every entry that follows.
1. COC(=O)/C=C1\C(=O)C=C2[C@@H]3C[C@H]4C[C@H](CC[C@@]4(C)N21)C3(C)NC(C)=O (stereo not given in full)
2. CCN(CC)CCOc1c(OC)c(Br)cc2c(C)c(C(=O)OC)oc12
3. CSc1nsc(S/C=C\C(=O)c2ccc(C)cc2)n1

OUTPUT:
1: 24.8; 2: 5.62; 3: 40.3

====

What TGI was measured for each of the following?
- Test system: HL-60(TB) leukemia
- assay procedure: NCI tumour cell line growth inhibition, 48 h
*1 amine or outer side, *2 acyl side, *3 side chain or, on linkers, in order; H or OH if unused. Where a SMILES comes first, the peptide text is derived from it. Bridges are numbered along the chain shown (N, C = ends). [ ]: non-standard residue; d: D form. ξ: configuration not given here. X35 = CC[C@H](C)[C@@H](N[*:1])[C@@H](O)CC(=O)O[C@H](C(=O)[C@H](C)C(=O)[*:2])C(C)C; NMeY = CN[C@@H](Cc1ccc(O)cc1)C(=O)O; dNMeL = CN[C@H](CC(C)C)C(=O)O; ξΔPro = O=C(O)C1C=CCN1

Worked examples, 3 compounds total:
| compound | assay metric | result |
| --- | --- | --- |
| S=P(N1CCCC1)(N1CC1)N1CC1 | TGI | > 100 µM |
| CC1=NOC(=O)C1N=Nc1ccc(Br)c(C)c1 (centres undefined) | TGI | 23.8 µM |
| CC[C@H](C)[C@H]1NC(=O)[C@@H](NC(=O)[C@@H](CC(C)C)N(C)C(=O)C2C=CCN2)[C@@H](C)OC(=O)[C@H](Cc2ccc(OC)cc2)N(C)C(=O)[C@@H]2CCCN2C(=O)[C@H](CC(C)C)NC(=O)[C@@H](C)C(=O)[C@H](C(C)C)OC(=O)C[C@@H]1O (some centres undefined) (H-[ξΔPro][dNMeL]T[X35]LP[NMeY](Me); ester 3-C) | TGI | > 50 µM |

Please report TGI for every entry that follows.
1. COc1cc2c(cc1OC)C(=O)/C(=C/c1ccc(O)cc1)CC2
2. COC(=O)/C=C1\C(=O)C=C2[C@@H]3C[C@H]4C[C@H](CC[C@@]4(C)N21)C3(C)NC(C)=O (some centres undefined)
3. Nc1ccc(C(=O)CC2(O)C(=O)Nc3c(Cl)cc(Cl)cc32)cc1 (centres undefined)
4. C=CCc1ccccc1C1CC2(C(=O)OC)OC1C(C(=O)OC)=C2C(=O)OC (centres undefined)
5. CCN(CCCl)c1cccc(NC(=O)c2ccc(C(=O)Nc3cccc(CN(C)C)c3)cc2)c1
6. COc1ccc2ccccc2c1CN1CCOCCOCCN(Cc2c(OC)ccc3ccccc23)CCOCCOCC1
7. COC(=O)[C@](C)(Cc1ccccc1)NC(=O)[C@@H](C)N1[C@@H](c2ccccc2)COC1(C)C

OUTPUT:
["> 10 µM", "> 100 µM", "78.5 µM", "> 10 µM", "12.7 µM", "53.4 µM", "> 100 µM"]

Please report TGI for every entry that follows.
1. COc1cccc(NC(=O)CC(=O)N2N=C(C)C(N=Nc3ccc(C(=O)O)cc3)C2=O)c1 (centres undefined)
2. NNC(=O)Cn1ccnn1
3. Cc1ccc(NC2=N/C(=C/c3ccco3)C(Cl)=N2)cc1
4. COc1cc(C2c3cc4c(cc3[C@@H](OCCN(C)C)C3COC(=O)[C@H]23)OCO4)cc(OC)c1O (some centres undefined)

OUTPUT:
["> 100 µM", "> 100 µM", "> 100 µM", "> 100 µM"]

Please report TGI for every entry that follows.
1. C=C(CCOC)CCC1CCCCC(=C)[C@H]1O (some centres undefined)
2. Cn1ccc2c(c1=O)C(=O)OC2(C)C
3. COc1cc2c(cc1O)CCN(C)[C@H]2Cc1ccc(Oc2c(O)c(OC)cc3c2C[C@H]2c4c(c(OC)c(OC)c(OC)c4-3)CCN2C)cc1
4. COC(=O)c1ccc(CN2C(=O)C(Cl)=C(Nc3ccc(OC)c(Cl)c3)C2=O)cc1
5. Cc1ccc(/C=N\NC(=O)c2ccncc2)s1

OUTPUT:
1. > 100 µM
2. > 100 µM
3. 10.6 µM
4. > 50 µM
5. > 100 µM

All values here come from PubChem BioAssay (NCI).
